- System: panel of nearly 500 cancer cell lines
- experiment notes: Cancer Cell Line Encyclopedia profiling, 3-day CellTiter-Glo
- Assay type: cell-based
- assay setup: rerflcai (lung); read-out: IC50
property label: IC50

For this compound ( CC(=O)c1c(C)c2cnc(Nc3ccc(N4CCNCC4)cn3)nc2n(C2CCCC2)c1=O [Palbociblib] ), measured IC50 is > 8 µM

---

- System: T-47d
- experiment notes: cells
- Format: cell-based
- assay setup: Homo sapiens, T47D, 72 h
property label: pIC50
In plain terms, pIC50 is the concentration in mol/L turned into minus its base-10 logarithm.

For this molecule ( "CN(C)C(=O)c1cc2cnc(Nc3ccc(N4CCNCC4)cn3)nc2n1C1CCCC1" ), measured pIC50 is 6.60
